Data provenance: paper PMC12655819

# EXPERIMENT SUMMARY: Pharmacokinetics from dried saliva collected with Mitra VAMS (vsMPA, vsMPAG)
# Assay type: in vivo, human
# PROTOCOL CONDITIONS: human; dried saliva (Mitra VAMS); 4 h post-dose; n = 20; mean ± SD; read-out: C4 concentration
MEASURED METRIC: concentration at 4 h (ng/mL)

{"COMPOUND": "COc1c(C)c2c(c(O)c1C/C=C(\\C)CCC(=O)O)C(=O)OC2 [MPA, Mycophenolic acid]", "MEASURED METRIC": "concentration at 4 h", "VALUE MEASURED": 7.25}

###

# EXPERIMENT SUMMARY: Pharmacokinetics from dried saliva collected with Mitra VAMS (vsMPA, vsMPAG)
# Assay type: in vivo, human
# PROTOCOL CONDITIONS: human; dried saliva (Mitra VAMS); 0 h (pre-dose); n = 20; mean ± SD; read-out: C0 concentration

{"GIVEN SMILES": "COc1c(C)c2c(c(O)c1C/C=C(\\C)CCC(=O)O)C(=O)OC2", "concentration at 0 h (ng/mL)": 7.54}

###

# EXPERIMENT SUMMARY: Pharmacokinetics from capillary blood collected with Mitra VAMS (vMPA, vMPAG)
# Type: in vivo, human
# PROTOCOL CONDITIONS: human, 0.5 h post-dose, n = 20, mean ± SD, read-out: C0.5 concentration

{"GIVEN SMILES": "COc1c(C)c2c(c(O)c1C/C=C(\\C)CCC(=O)O)C(=O)OC2", "concentration at 0.5 h (ng/mL)": 9660}

###

# EXPERIMENT SUMMARY: Pharmacokinetics from liquid (wet) saliva collected with Salivette (sMPA, sMPAG)
# Type: in vivo, human
# PROTOCOL CONDITIONS: human, unstimulated, Salivette; wet saliva; 4 h post-dose; n = 20; mean ± SD; read-out: C4 concentration

{"GIVEN SMILES": "COc1c(C)c2c(c(O)c1C/C=C(\\C)CCC(=O)O)C(=O)OC2", "concentration at 4 h (ng/mL)": 8}

###

# EXPERIMENT SUMMARY: Pharmacokinetics from liquid (wet) saliva collected with Salivette (sMPA, sMPAG)
# Format: in vivo, human
# PROTOCOL CONDITIONS: human, unstimulated, Salivette; wet saliva; 1 h post-dose; n = 20; mean ± SD; read-out: C1 concentration
# Protocol: The AUC0–4, Tmax, and Cmax parameters were calculated using the R (version 4.5.1) package software (R Core Team, 2025), supported by RStudio (version 2025.05.1+513) from Posit PBC software (Boston, MA, USA). […] The vMPA and vMPAG capillary blood levels were corrected using formulas validated in our department (partially published by Kocur et al.) and expressed as estimated capillary plasma concentrations. […]

{"GIVEN SMILES": "COc1c(C)c2c(c(O)c1C/C=C(\\C)CCC(=O)O)C(=O)OC2", "concentration at 1 h": "51.6 ng/mL"}

###

# EXPERIMENT SUMMARY: Pharmacokinetics from dried saliva collected with Mitra VAMS (vsMPA, vsMPAG)
# Format: in vivo, human
# PROTOCOL CONDITIONS: dried saliva (Mitra VAMS); pediatric renal transplant recipients (n = 20) on MMF; mean (range)

{"COMPOUND": "COc1c(C)c2c(c(O[C@@H]3O[C@H](C(=O)O)[C@@H](O)[C@H](O)[C@H]3O)c1C/C=C(\\C)CCC(=O)O)C(=O)OC2 [MPAG, mycophenolic acid glucuronide]", "SCALE UNIT": "ng·h/mL", "AUC(0–4)": 145}

###

# EXPERIMENT SUMMARY: Pharmacokinetics from liquid (wet) saliva collected with Salivette (sMPA, sMPAG)
# Assay type: in vivo, human
# PROTOCOL CONDITIONS: human, unstimulated, Salivette; wet saliva; 0 h (pre-dose); n = 20; mean ± SD; read-out: C0 concentration

{"MOLECULE": "COc1c(C)c2c(c(O)c1C/C=C(\\C)CCC(=O)O)C(=O)OC2 [MPA, Mycophenolic acid]", "SCALE UNIT": "ng/mL", "concentration at 0 h": 8.24}

###

# EXPERIMENT SUMMARY: Pharmacokinetics from liquid (wet) saliva collected with Salivette (sMPA, sMPAG)
# Format: in vivo, human
# PROTOCOL CONDITIONS: human, unstimulated, Salivette; wet saliva; pediatric renal transplant recipients (n = 20) on MMF; mean (range); read-out: Tmax
MEASURED METRIC: Tmax (min)

{"GIVEN SMILES": "COc1c(C)c2c(c(O)c1C/C=C(\\C)CCC(=O)O)C(=O)OC2", "MEASURED METRIC": "Tmax", "VALUE MEASURED": 51}

###

# EXPERIMENT SUMMARY: Pharmacokinetics from total plasma levels (tMPA, tMPAG), LC-MS/MS
# Type: in vivo, human
# PROTOCOL CONDITIONS: total plasma level; pediatric renal transplant recipients (n = 20) on MMF; mean (range)
MEASURED METRIC: AUC(0–4) (µg·h/mL)

{"COMPOUND": "COc1c(C)c2c(c(O[C@@H]3O[C@H](C(=O)O)[C@@H](O)[C@H](O)[C@H]3O)c1C/C=C(\\C)CCC(=O)O)C(=O)OC2 [MPAG, mycophenolic acid glucuronide]", "VALUE MEASURED": 144}

###

# EXPERIMENT SUMMARY: Pharmacokinetics from total plasma levels (tMPA, tMPAG), LC-MS/MS
# Type: in vivo, human
# PROTOCOL CONDITIONS: human; total plasma level; 0 h (pre-dose); n = 20; mean ± SD; read-out: C0 concentration
# Procedure: The AUC0–4, Tmax, and Cmax parameters were calculated using the R (version 4.5.1) package software (R Core Team, 2025), supported by RStudio (version 2025.05.1+513) from Posit PBC software (Boston, MA, USA). […] The vMPA and vMPAG capillary blood levels were corrected using formulas validated in our department (partially published by Kocur et al.) and expressed as estimated capillary plasma concentrations. […]
MEASURED METRIC: concentration at 0 h (ng/mL)

{"GIVEN SMILES": "COc1c(C)c2c(c(O)c1C/C=C(\\C)CCC(=O)O)C(=O)OC2", "VALUE MEASURED": 2150}

###

# EXPERIMENT SUMMARY: Stability of analytes in dried saliva Mitra VAMS tips
# Type: physicochemical
# PROTOCOL CONDITIONS: dried saliva on Mitra VAMS tips, LQC; room temperature (light-protected with desiccant); 24 hours; n=6
MEASURED METRIC: recovery at 24 hours (%)

{"GIVEN SMILES": "COc1c(C)c2c(c(O)c1C/C=C(\\C)CCC(=O)O)C(=O)OC2", "MEASURED METRIC": "recovery at 24 hours", "VALUE MEASURED": 101}

###

# EXPERIMENT SUMMARY: Pharmacokinetics from dried saliva collected with Mitra VAMS (vsMPA, vsMPAG)
# Assay type: in vivo, human
# PROTOCOL CONDITIONS: human; dried saliva (Mitra VAMS); 2 h post-dose; n = 20; mean ± SD; read-out: C2 concentration

{"GIVEN SMILES": "COc1c(C)c2c(c(O)c1C/C=C(\\C)CCC(=O)O)C(=O)OC2", "concentration at 2 h": "17.1 ng/mL"}

###

# EXPERIMENT SUMMARY: Pharmacokinetics from total plasma levels (tMPA, tMPAG), LC-MS/MS
# Assay type: in vivo, human
# PROTOCOL CONDITIONS: human, plasma, total plasma level; pediatric renal transplant recipients (n = 20) on MMF; mean (range); read-out: Tmax

{"GIVEN SMILES": "COc1c(C)c2c(c(O)c1C/C=C(\\C)CCC(=O)O)C(=O)OC2", "Tmax": "30 to 60 min"}

###

# EXPERIMENT SUMMARY: Stability of analytes in dried saliva Mitra VAMS tips
# Format: physicochemical
# PROTOCOL CONDITIONS: dried saliva on Mitra VAMS tips, HQC; room temperature (light-protected with desiccant); 3 days; n=6

{"GIVEN SMILES": "COc1c(C)c2c(c(O)c1C/C=C(\\C)CCC(=O)O)C(=O)OC2", "recovery at 3 days": "100%"}

###

# EXPERIMENT SUMMARY: Pharmacokinetics from plasma unbound levels in plasma ultrafiltrate (fMPA, fMPAG)
# Format: in vivo, human
# PROTOCOL CONDITIONS: human, plasma ultrafiltrate (unbound level in EDTA plasma); free level in plasma ultrafiltrate; 1 h post-dose; n = 20; mean ± SD; read-out: C1 concentration
MEASURED METRIC: concentration at 1 h

{"COMPOUND": "COc1c(C)c2c(c(O)c1C/C=C(\\C)CCC(=O)O)C(=O)OC2 [MPA, Mycophenolic acid]", "VALUE MEASURED": "149 ng/mL"}
